# tested_on: Glutamate racemase (Helicobacter pylori (strain ATCC 700392 / 26695) (Campylobacterpylori))
# Sequence (P56068 whole entry): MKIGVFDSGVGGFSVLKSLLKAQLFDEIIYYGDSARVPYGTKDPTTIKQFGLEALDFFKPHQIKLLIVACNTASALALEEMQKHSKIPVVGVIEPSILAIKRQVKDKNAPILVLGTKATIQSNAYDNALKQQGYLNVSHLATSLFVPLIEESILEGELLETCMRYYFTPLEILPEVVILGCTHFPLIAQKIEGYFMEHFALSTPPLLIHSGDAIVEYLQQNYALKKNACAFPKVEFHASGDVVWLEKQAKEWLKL
# test_details: Binding affinity to Helicobacter pylori MurI by isothermal titration calorimetry
assay_metric: Kd (µM)
Give bare numbers, in µM.

Tell me the measured Kd of `CC(C)Cn1c(=O)n(C)c(=O)c2c(-c3ccncc3)n(Cc3cccc4ccccc34)nc21` , please.
2.9

---

# test_details: Inhibition of MurI in Staphylococcus aureus
assay_metric: IC50

>  <smiles_representation>
CC(C)Cn1c(=O)n(C)c(=O)c2c(-c3ccncc3)n(Cc3cccc4ccccc34)nc21

>  <IC50>
> 400 µM

$$$$

Attention now turns to another entry.
Tell me the measured IC50 of `Cn1cc(C#N)cc1-c1c2c(=O)n(C)c(=O)n(CC3CC3)c2nn1Cc1ccnc2ccc(Cl)cc12` , please.
> 400 µM

---

# tested_on: Glutamate racemase (Helicobacter pylori (strain ATCC 700392 / 26695) (Campylobacterpylori), UniProt P56068, E151K)
# test_details: Inhibition of Helicobacter pylori MurI E151K mutant
assay_metric: Ki

Tell me the measured Ki of N[C@H](CCC(=O)O)C(=O)O [D-GLUTAMATE] , please.
> 100 mM

---

# tested_on: Glutamate racemase (Helicobacter pylori (strain ATCC 700392 / 26695) (Campylobacterpylori))
# test_details: Inhibition of Helicobacter pylori glutamate racemase
assay_metric: pKi
Numbers only, as −log10 of the molar value.

Tell me the measured pKi of N[C@H](CCC(=O)O)C(=O)O [D-GLUTAMATE] , please.
5.24

---

# tested_on: Glutamate racemase (Helicobacter pylori (strain ATCC 700392 / 26695) (Campylobacterpylori), UniProt P56068)
# test_details: Inhibition of Helicobacter pylori glutamate racemase
assay_metric: pIC50
Give bare numbers, as −log10 of the molar value.

>  <smiles_representation>
CC(C)Cn1c(=O)n(C)c(=O)c2c(-c3ccncc3)n(Cc3cccc4ccccc34)nc21

>  <pIC50>
5.85

$$$$

Attention now turns to another entry.
Tell me the measured pIC50 of `Cn1cc(C#N)cc1-c1c2c(=O)n(C)c(=O)n(CC3CC3)c2nn1Cc1ccnc2ccc(Cl)cc12` , please.
7.60

---

# tested_on: Glutamate racemase (Helicobacter pylori (strain ATCC 700392 / 26695) (Campylobacterpylori), UniProt P56068, A75T)
# test_details: Inhibition of Helicobacter pylori MurI A75T mutant
assay_metric: pKi
One number for each entry, as −log10 of the molar value.

Tell me the measured pKi of N[C@H](CCC(=O)O)C(=O)O [D-GLUTAMATE] , please.
3.18

---

# tested_on: Glutamate racemase (Helicobacter pylori (strain ATCC 700392 / 26695) (Campylobacterpylori))
# Sequence (P56068 whole entry): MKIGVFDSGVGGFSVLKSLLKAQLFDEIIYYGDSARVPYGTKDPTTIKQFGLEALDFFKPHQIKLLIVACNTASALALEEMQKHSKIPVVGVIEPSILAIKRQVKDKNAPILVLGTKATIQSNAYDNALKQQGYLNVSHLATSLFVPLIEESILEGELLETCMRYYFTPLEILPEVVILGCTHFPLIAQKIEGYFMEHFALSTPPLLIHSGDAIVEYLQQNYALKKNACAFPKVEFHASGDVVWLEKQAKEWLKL
# test_details: Binding affinity to Helicobacter pylori MurI by protein fluorescence binding assay
assay_metric: Kd (nM)
Give bare numbers, in nM.

>  <smiles_representation>
CC(C)Cn1c(=O)n(C)c(=O)c2c(-c3ccncc3)n(Cc3cccc4ccccc34)nc21

>  <Kd [nM]>
3900

$$$$

Attention now turns to another entry.
Tell me the measured Kd of `Cn1cc(C#N)cc1-c1c2c(=O)n(C)c(=O)n(CC3CC3)c2nn1Cc1ccnc2ccc(Cl)cc12` , please.
25
